- Tested on: MS2 coat protein
- test: apparent KD of MS2 coat protein; designed switch direction (-1 OFF switch, 1 ON switch): 1; higher = weaker reporter binding
- condition-set: Eterna round: R98; input ligand: none
measurement-name: apparent KD of MS2 coat protein (nM)

sequence-entry	recorded-result
UAUUAAAGGUGAGGAUAUGCACAGGAUCACCGUGUAGAAGGCAUCAGGUAGAAGGUGCAGAGGAUCACCCUGUAAGGAUAUAUC [pwkr2 ssNG1 DX.10]	1080
UUUUUAUUUAUAGGAUAUGGAGACAUGAGGAUCACCCAUGUAUGAUAAGAUAAAUUAUGAUGUGGCCAGAAGGAUAUUAUUUUU [LRO018_SS NG 2]	76.4
AAAACAUGAGGAUCACCCAUGUAAAGAUCGGUUAAUAGAAGUGAGGAUAUACUAAAUUUUAGGUAGUAGAAGGCACUGGGUACA [JR_SSNG3_Sub034]	23.1
GCAGAAGGUGCGGAGGAUCACCCUGUAAGGAUAUGCAUUAGCAAGGAUAUACAGAGGAUCACCCUGUAGAAGGUGCACUAUUCU [pwkr2 ssNG3 DX.4]	1450
GCUUGCGACGAAGGAUAUGGGUGCCUAAACACGAGGAUCACCCGUGUACAGGAAGCUAAAUGCUCUCAGAAGGUCGUCGCAGGC [United States 10 - Jieux - Same State NG 2]	36
CGAGACACUUGAGGAUAUGCUCAGGAUAACUGAGCAGAAGGCAGGGAAACCUGAGGAUCACCCAGGUAACUGGAAAGUCUCGAA [Same State NG1 - A3C, U17G Submission 5B]	144
GCUGCUAUCGCAGGAUAUUACAUGGGAAAUAAUACAUGAGGAUCACCCAUGUAAAAUAUCGUAAAUAAGAAGGGCGAUAGCAGC [Lame State 4 - Jieux - Same State NG 2]	1210
GUGCGAGCCACAGGAUAUCUACAGAUUUUUUGUAGAGAAGGGUGACCUCGUGCACCACAUGAGGAUCACCCAUGUAACUAGGCG [Bianeren]	82.1
UGAUCGCUUGGAGGAUAUCCAACUAUCCUAGUUGGAGAAGGCCAAGCUACAGAGCUAAGCUUGGAAGUCACUUCCGAUCAACAC [pwkr ssNG1 F9.4.2]	33.6
CCUUGAUAAUAUCUUCACAUGAGGAUCACCCAUGUCGCUCGACAGGAUAUAUUUUAUUUGUUUAAGUAGAAGGGUCGCAGAUUC [LRO020_SS NG 3]	136
GUACGGAUCAUAGGAUAUCUGCCGGCCGGAGUUAGAGAAGGGUGAUCUAGGAUGCCACAUGAGGAUCACCCAUGUCAACAUCGC [Vemati]	24.2
UUAUAAAAUAUAGGAUAUGGAAACAUGAGGAUCACCCAUGUAUGAUAAGAUAAAUUAUGAUAUAGCCAGAAGGAUACAAUAUAU [LRO011_SS NG 2]	28
UCGGUUUUCGCAGGAUAUGGAGGAUAUUCCCACAUGAGCAUCAGCCAUGUCUGCAUGGAAGAAGGCCAGAAGGGCGAGAACCGA [United States 1 - Jieux - Same State NG 2]	13.6

----------
- Test system: MS2 coat protein
- test: apparent KD of MS2 coat protein; designed switch direction (-1 OFF switch, 1 ON switch): -1; higher = weaker reporter binding
- condition-set: input ligand: none
Catalogue of sequences with associated apparent KD of MS2 coat protein

sequence-entry	apparent KD of MS2 coat protein (nM)
AACAGUGAUGAGGAUAUAUAAAGAGAAAAGAAAAUAGAAGGUGUCACAUGAGGAUCACCCAUGUGUUCUUCAGA [EX6 A.12] (Eterna round: R97, puzzle: Exclusion 6)	16.5
CUUGAGCAGGUAGGAUAUACGAAGUGUCGGCGAGUAGAAGGACCUGCGAUCCACUUGAGGAUCACCCAAGUUCGCAGGAGAACA [Mutated MS2 EX1.1] (Eterna round: R96, puzzle: Exclusion NG 1)	61.3
GCCUCACUUGAGGAUCACCCAAGUCAGGAUAUUCACGGAACUACGUAGUAGUUCGGCCGGAGAAGGGAUUCGGG [Qubexe] (Eterna round: R97, puzzle: Exclusion 1)	41.8

----------
Collected apparent KD of MS2 coat protein values appear next to each entry.
- Test system: MS2 coat protein
- test: apparent KD of MS2 coat protein, switch ON state; designed switch direction (-1 OFF switch, 1 ON switch): 1; higher = weaker reporter binding
- condition-set: FMN input: 0 or 200 uM; Eterna round: R93 (includes R88 designs)

sequence-entry	apparent KD of MS2 coat protein (nM)
ACAAUACAUGAGGAUCACCCAUGUUAGCUGGGCGAAGGAUAUGUAGAUGGAUAAAAAUAUGCAGAAGGUCGAUAAC [JR_SS001_Sub209]	68.7
AAAUAACAUGAGGAUCACCCAUGUUGCAACGGUACAGGAUAUGUGGGUGAAAAUAGCAUGACAGAAGGGUAGUGUA [SameState1 Malc#30]	207
GCCUAACAUGAGGAUCACCCAUGUAGUGGGUUGUUAGGAUAUGGGCCGCAUUACGCUGCACCAGAAGGAAUAGAAG [Rasoraer]	319
AAAUAAAUGACUAAGGAUAUAUCGAAGAAAACAUGAGGAUCACCCAUGUGAUAAUAAAAAGGGUGGUAGAAGGUAGUCAACAAAC [Mod 4 of Pariah 4 by Hyphema in Round 1]	50.2
AGGAAACAUGAGGAUCACCCAUGUAAAAAAUAUGGAGGAUAUACUAGAAGAAACAAAAUAGUAGAAGGCCAAAAAA [75%, Ex sub1, 31]	15.2
AAGAAACAUGAGGAUCACCCAUGUAGAAAUAUGGGAGGAUAUACAAAGACGAAAGUCAAAGUAGAAGGCCUAAGAA [Mat - Same State 1 - Meechl mod - D129]	16.6
AAAAGACAUGAGGAUCACCCAUGUCAAAACAUAGGAGGAUAUGUCUGGAAAAAAGACUGGACAGAAGGCCUUUGUC [SS1 - 59]	15.5
GAAAAACAUGAGGAUCACCCAUGUGAAAAUAUGGGAGGAUAUACGAAGACGAAAGUCAAAGUAGAAGGCCUAAAAG [Garnet 31]	23.8
AAAACUACAGAUCAGGAUAUGUUUAGGUAAACAUGAGGAUCACCCAUGUGCACCUGAUAAACAACACAGAAGGGAUAACGUGGGA [Geerreleon]	20.7
AAAAAACAAAGAGAGGAUAUCCAAAAAAAAACAUGAGGAUCACCCAUGUAAAGAAAUUUAAAAUGGGAGAAGGCUCUUUGAAAAA [Same State 2.6b ( Helter Skelter 1)]	33.4
CUGGACAUAGUACAGGAUAUAUGAAUAGUCACAUGAGGAUCACCCAUGUCCAUUUAUAUGGGCACAUAGAAGGGUGGUAGUUAAG [Mat - Same state - Malcolm Mod - D139]	4.52
UAAAAACAUGAGGAUCACCCAUGUAGAAAUAUGGGAGGAUAUACAAAGACGAAAGUCAAAGUAGAAGGCCUAAAAU [Mat - Same State 1 - Eli mod - 32]	16.5

----------
- Tested on: MS2 coat protein
- test: apparent KD of MS2 coat protein; designed switch direction (-1 OFF switch, 1 ON switch): -1; higher = weaker reporter binding
- condition-set: input ligand: none
measurement-name: apparent KD of MS2 coat protein (nM)

sequence-entry	measurement-name	unit-string	recorded-result
GGUAGAGUGGUAGGAUAUCCGUCUGUUUCAGUCGGAGAAGGACCACAGUCACUGGGUCCUAAUAUGGGUGACCAUGUAUCUACC [pwkr exNG1 F6.11] (Eterna round: R96, puzzle: Exclusion NG 1)	apparent KD of MS2 coat protein	nM	348
CGGCGACAUGAGGAUCACCCAUGUGAGGAUAUGACGGGAAAAGCGUGAGCAGUUUGUGUCAGAAGGCGCGUAGG [salish99_ex1_r4_081] (Eterna round: R97, puzzle: Exclusion 1)	apparent KD of MS2 coat protein	nM	28.7
ACAUGAGGAUCACCCAUGUCUGGCGGGUCCUCUCCGGCUGUUGAGGAUAUAGUUCGGUAUCCGCGCUAGAAGGUGAGGGCCGGC [Aenatbe mod 20] (Eterna round: R96, puzzle: Exclusion NG 3)	apparent KD of MS2 coat protein	nM	16.5

----------
- System: MS2 coat protein
- test: apparent KD of MS2 coat protein; higher = weaker reporter binding
- condition-set: Eterna round: R107; input ligand: theophylline 20 uM
Classes based on apparent KD of MS2 coat protein: bottom range: < 0.02 µM; center range: ≥ 0.02 µM and < 0.1 µM; top range: ≥ 0.1 µM

sequence-entry	class-assignment
AGUAGUUGACAAAAGUCAGCUACAACUGAAGGAGCGGGUGGGUGCCCAGGUAGGUCGCAGGAACAUGAGGAUCACCCAUGUAUAA [ArgAS 3 #BothOrNeither #OpenEnded]	center range
AUCCAUAGCCGAAGGAGCGCAGUAGGAUGACAUGAGGAUCACCCAUGUGUGUGAUGUGGAUUGCAGGUAGGUCGCGGAGUGGGAU [Exclusion - Arginine B (Freestyle 6)]	top range
AAGAUACUCUGAAGGAGCGUCAUAAAACAUGAGGAUCACCCAUGUGCGCGGGUGUAAUUAUGACAGGUAGGUCGCAGAGUAUUUA [Arg B SS t2]	top range
ACAAGGACAUGAGGAUCACCCAUGUGGGAAGGAGCGCAUAAAUAUGCAGGUAGGUCGCCCGGCGUGAUAUUUAAUAUUUUAAUAA [Exclusion - Arginine A]	center range
ACCUAAGCCACAGAUACCAGAGUAAUAGGCCAAUUUCAAAACAUGAGGAUCACCCAUGUACUCCCUUGGCAGCUGCGAAUCGAAA [theeternabot_exclusion_MS2_Theo_B_30]	bottom range
GUAUAUUGAAAACAAUAUACAGUGGGUGAACGAGGACCGGUACGGCCGCCACUCGGACAUGAGGAUCACCCAUGUCCAUGUGAAA [AstrosExyTryA#8]	bottom range
ACAUGUCUUAUAGAUACCAGACAGGACAUGAGGAUCACCCAUGUAAUGUAUACAUGCAGAGUCCCUUGGCAGCUAAGGUCAUAGA [#26 Same State - Theophylline B]	top range
GGCUGUCAUAGGAGGUGAAAUAUACUCGAAGGAGCGUCAUAGUAGGCAGGUAGGUCGCGAGACAUGAGGAUCACCCAUGUAGAGA [yyumullin]	top range
CUGUUUGUUUGGGUCUGUCAAAAGAACGAUACCAGCCGCAUUAUGGGCCCUUGGCAGCGUAGGACAUGAGGAUCACCCAUGUACG [theeternabot_exclusion_MS2_Theo_A_16]	center range
GUGGGUUUGCGAAGGAGCGGGUAUGUUUUCUACUGGAUCCUAACAUGAGGAUCACCCAUGUCCCAGGUAGGUCGCGCGGGCUUGG [12.Z]	center range
AUAUUAGACCUGGAUACCAGCGACAUGAGGAUCACCCAUGUAUGUGCAUCAGCCAUGAUAUGCCCUUGGCAGCCACCGAGGUCGU [YYTMULLIN]	bottom range
AUCGUACCUGGUGAUACCAGCAAUUGCUCGUGACAUGAGGAUCACCCAUGUGGCCAGUGAUGCCCUUGGCAGCAUGGUCGGUGCA [Same State - Theophylline B (Freestyle 24)]	top range
